Data provenance is patent US20260265238A1.

DC50: recorded values
# System under test: SMARCA4-HiBiT HeLa cells (protein which is expressed from the SMARCA4 gene) (Homo sapiens, UniProt P51532)
# Construct: protein which is expressed from the SMARCA2 and SMARCA4 genes; host or cells: HeLa (SMARCA4-HiBiT engineered line)
# Sequence (P51532 whole entry): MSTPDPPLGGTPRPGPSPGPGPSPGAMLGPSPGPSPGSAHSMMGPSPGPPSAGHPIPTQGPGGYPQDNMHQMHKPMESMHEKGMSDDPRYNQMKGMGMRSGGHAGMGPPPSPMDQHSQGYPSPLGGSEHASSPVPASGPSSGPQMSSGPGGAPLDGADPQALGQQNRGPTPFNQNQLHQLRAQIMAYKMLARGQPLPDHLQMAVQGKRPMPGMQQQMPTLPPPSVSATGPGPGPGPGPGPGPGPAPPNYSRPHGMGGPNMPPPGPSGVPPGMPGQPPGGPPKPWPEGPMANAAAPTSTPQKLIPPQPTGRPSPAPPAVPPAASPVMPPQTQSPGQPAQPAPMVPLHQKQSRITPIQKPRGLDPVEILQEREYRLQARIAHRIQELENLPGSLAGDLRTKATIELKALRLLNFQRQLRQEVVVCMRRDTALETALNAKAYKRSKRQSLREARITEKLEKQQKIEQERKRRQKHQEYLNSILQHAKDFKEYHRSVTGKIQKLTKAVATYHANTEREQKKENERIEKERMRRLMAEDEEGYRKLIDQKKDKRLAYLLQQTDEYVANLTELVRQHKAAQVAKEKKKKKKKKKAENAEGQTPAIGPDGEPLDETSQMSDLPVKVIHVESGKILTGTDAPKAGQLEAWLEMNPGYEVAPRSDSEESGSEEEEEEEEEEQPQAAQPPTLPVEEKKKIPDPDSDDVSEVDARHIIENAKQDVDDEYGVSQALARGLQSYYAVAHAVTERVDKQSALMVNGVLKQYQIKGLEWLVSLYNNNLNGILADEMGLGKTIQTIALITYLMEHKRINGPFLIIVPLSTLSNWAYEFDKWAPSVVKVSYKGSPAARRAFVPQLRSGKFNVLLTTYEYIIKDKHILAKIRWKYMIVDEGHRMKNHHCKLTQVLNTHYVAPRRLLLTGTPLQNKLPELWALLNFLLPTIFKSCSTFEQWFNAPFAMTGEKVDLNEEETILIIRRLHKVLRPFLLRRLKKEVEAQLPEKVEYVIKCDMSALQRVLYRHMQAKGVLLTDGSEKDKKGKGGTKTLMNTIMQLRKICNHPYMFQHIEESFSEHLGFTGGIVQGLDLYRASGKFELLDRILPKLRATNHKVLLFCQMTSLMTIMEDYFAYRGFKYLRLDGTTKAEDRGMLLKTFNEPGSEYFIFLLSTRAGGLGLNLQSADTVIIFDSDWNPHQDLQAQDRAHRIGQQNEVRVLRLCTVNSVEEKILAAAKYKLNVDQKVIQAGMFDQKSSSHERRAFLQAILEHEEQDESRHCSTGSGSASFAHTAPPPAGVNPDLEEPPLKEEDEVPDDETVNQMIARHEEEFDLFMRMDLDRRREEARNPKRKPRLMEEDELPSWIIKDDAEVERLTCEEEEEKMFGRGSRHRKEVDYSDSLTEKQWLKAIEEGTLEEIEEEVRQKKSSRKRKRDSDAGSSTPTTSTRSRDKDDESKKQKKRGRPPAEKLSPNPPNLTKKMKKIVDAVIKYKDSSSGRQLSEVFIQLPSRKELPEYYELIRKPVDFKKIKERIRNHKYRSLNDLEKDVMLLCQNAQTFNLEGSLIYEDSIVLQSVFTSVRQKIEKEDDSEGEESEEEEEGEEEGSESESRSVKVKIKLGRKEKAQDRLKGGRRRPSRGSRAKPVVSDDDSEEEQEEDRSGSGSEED
# Test protocol: SMARCA4 degradation assay (HiBiT-fusion HeLa cell line, 24 h, luminescence)
# Format: cell-based

Some solved cases for reference:
[[record]]
molecule = "C[C@@H]1CCN(c2cc(-c3ccccc3O)nnc2N)CCN1c1ccnc(C#CCN(C)CCF)n1"
value = "50 to 500 nM"

[[record]]
molecule = "Nc1nnc(-c2ccccc2O)cc1N1CC2CCC(C1)N2c1ccnc(C#CCn2ccnc2)n1"
value = "50 to 500 nM"

[[record]]
molecule = "C[C@@H]1CCN(c2cc(-c3ccccc3O)nnc2N)CCN1c1ccnc(C#CCN2CC(F)(F)[C@@H]2C)n1"
value = "50 to 500 nM"

[[record]]
molecule = "Nc1nnc(-c2ccccc2O)cc1N1CCCN(c2ccnc(C#CC3CC3)n2)CC1"
value = "50 to 500 nM"

[[record]]
molecule = "Nc1nnc(-c2ccccc2O)cc1N1CCC2C1CCCN2c1ccnc(C#CCNC(=O)c2cc3ncccn3n2)n1 (stereo not shown)"
value = "500 to 5000 nM"

[[record]]
molecule = "C[C@@H]1CCN(c2cc(-c3ccccc3O)nnc2N)CCN1c1ccnc(C#CCN2CC(F)(F)C2)n1"
value = "50 to 500 nM"


Then there is this molecule:
Record `C[C@@H]1CN(c2cc(-c3ccccc3O)nnc2N)CCN1c1ccnc(C#CCNC(=O)c2cc3ncccn3n2)n1` . Reported DC50: < 50 nM

====

DC50: recorded values
# System under test: SMARCA4-HiBiT HeLa cells (protein which is expressed from the SMARCA4 gene) (Homo sapiens, UniProt P51532)
# Construct: protein which is expressed from the SMARCA2 and SMARCA4 genes; host or cells: HeLa (SMARCA4-HiBiT engineered line)
# Test protocol: SMARCA4 degradation assay (HiBiT-fusion HeLa cell line, 24 h, luminescence)
# Format: cell-based

Some solved cases for reference:
[[record]]
compound = "Nc1nnc(-c2ccccc2O)cc1N1CCCN(c2ccnc(C#CCN3CCCC3=O)n2)CC1"
value = "50 to 500 nM"

[[record]]
compound = "N#CC1CN(CC#Cc2nccc(N3CCCN(c4cc(-c5ccccc5O)nnc4N)CC3)n2)CCO1 (stereo not shown)"
value = "50 to 500 nM"

[[record]]
compound = "Nc1nnc(-c2ccccc2O)cc1N1CCN(c2ccnc(C#CCNC(=O)c3cc4ncccn4n3)n2)CC(F)C1 (stereo not shown)"
value = "500 to 5000 nM"

[[record]]
compound = "Nc1nnc(-c2ccccc2O)cc1N1CCC2(CCN(c3ccnc(C#CCNC(=O)c4cc5ncccn5n4)n3)C2)CC1"
value = "50 to 500 nM"

[[record]]
compound = "Nc1nnc(-c2ccccc2O)cc1N1CC2CN(c3ccnc(C#CCNC(=O)c4cc5ncccn5n4)n3)C2C1 (stereo not shown)"
value = "50 to 500 nM"


Record `N#CC1CCN(CC#Cc2nccc(N3CCCN(c4cc(-c5ccccc5O)nnc4N)CC3)n2)CC1` . Reported DC50: 500 to 5000 nM

Record `Nc1nnc(-c2ccccc2O)cc1N1CCN(c2ccnc(C#CCNC(=O)c3ccn(CC(F)(F)F)n3)n2)CC1` . Reported DC50: < 50 nM

====

# System under test: SMARCA4-HiBiT HeLa cells (protein which is expressed from the SMARCA4 gene) (Homo sapiens)
# Construct: protein which is expressed from the SMARCA2 and SMARCA4 genes; host or cells: HeLa (SMARCA4-HiBiT engineered line)
# Test protocol: SMARCA4 degradation assay (HiBiT-fusion HeLa cell line, 24 h, luminescence)
# Type: cell-based
DC50: recorded values

Some solved cases for reference:
[[record]]
compound = "C[C@@H]1CCN(c2cc(-c3ccccc3O)nnc2N)CCN1c1ccnc(C#CCN2CC3CCC(C2)O3)n1"
measurement_label = "DC50"
value = "50 to 500 nM"

[[record]]
compound = "CC1CN(c2cc(-c3ccccc3O)nnc2N)CCN1c1ccnc(C#CCNC(=O)c2cc3ncccn3n2)n1 (stereo in doubt)"
measurement_label = "DC50"
value = "< 50 nM"

[[record]]
compound = "CC(C#Cc1cc(N2CCN(c3cc(-c4ccccc4O)nnc3N)CC[C@H]2C)ccn1)N(C)C (stereo partly shown)"
measurement_label = "DC50"
value = "< 50 nM"

[[record]]
compound = "CO[C@@H]1CCN(CC#Cc2nccc(N3CCN(c4cc(-c5ccccc5O)nnc4N)CC[C@H]3C)n2)C1"
measurement_label = "DC50"
value = "< 50 nM"

[[record]]
compound = "C[C@@H]1CCN(c2cc(-c3ccccc3O)nnc2N)CCN1c1cc(C#CCn2ccnc2)ncc1Cl"
measurement_label = "DC50"
value = "50 to 500 nM"

[[record]]
compound = "Nc1nnc(-c2ccccc2O)cc1N1CCCN(c2ccnc(C#CCn3ccnn3)n2)CC1"
measurement_label = "DC50"
value = "50 to 500 nM"


Then there is this compound:
Record `C[C@H]1CCN(c2cc(-c3ccccc3O)nnc2N)CCN1c1ccc(C#N)c(C#CCN2CC[C@H](F)C2)n1` . Reported DC50: 50 to 500 nM

====

DC50: recorded values
# System under test: SMARCA2-HiBiT HeLa cells (protein which is expressed from the SMARCA2 gene) (Homo sapiens)
# Construct: protein which is expressed from the SMARCA2 and SMARCA4 genes; host or cells: HeLa (SMARCA2-HiBiT engineered line)
# Test protocol: SMARCA2 degradation assay (HiBiT-fusion HeLa cell line, 24 h, luminescence)
# Type: cell-based

Some solved cases for reference:
[[record]]
molecule = "CC1CCN(c2ccnc(C#CCNC(=O)c3cc4ncccn4n3)n2)CCN1c1cc(-c2ccccc2O)nnc1N (centres unmarked) [Compound P-19]"
value = "500 to 5000 nM"

[[record]]
molecule = "Nc1nnc(-c2ccccc2O)cc1N1CC2CCC(C1)N2c1ccnc(C#CCNc2ncco2)n1 [Compound P-106]"
value = "500 to 5000 nM"

[[record]]
molecule = "NCC#Cc1nccc(N2CCC3C2CCCN3c2cc(-c3ccccc3O)nnc2N)n1 (centres unmarked) [Compound P-88]"
value = "> 5000 nM"

[[record]]
molecule = "Nc1nnc(-c2ccccc2O)cc1N1CCN(c2ccnc(C#CCCCNC(=O)c3cc4ncccn4n3)n2)CC1 [Compound P-92]"
value = "50 to 500 nM"

[[record]]
molecule = "C[C@H]1CN(c2ccnc(C#CCn3cccn3)n2)CCN1c1cc(-c2ccccc2O)nnc1N [Compound P-329]"
value = "50 to 500 nM"

[[record]]
molecule = "C[C@@H]1CCN(c2cc(-c3ccccc3O)nnc2N)CCN1c1ccnc(C#CCN(C)CCF)n1 [Compound P-154]"
value = "50 to 500 nM"


Record Nc1nnc(-c2ccccc2O)cc1N1CCCN(c2ccnc(C#CCNc3ncco3)n2)CC1 [Compound P-15] . Reported DC50: 500 to 5000 nM

Record C[C@@H]1CCN(c2cc(-c3ccccc3O)nnc2N)CCN1c1ccnc(C#CCN2CC3CCC2CO3)n1 (some centres unmarked) [Compound P-178] . Reported DC50: 50 to 500 nM

====

# System under test: SMARCA2-HiBiT HeLa cells (protein which is expressed from the SMARCA2 gene) (Homo sapiens, UniProt P51531)
# Construct: protein which is expressed from the SMARCA2 and SMARCA4 genes; host or cells: HeLa (SMARCA2-HiBiT engineered line)
# Sequence (P51531 whole entry): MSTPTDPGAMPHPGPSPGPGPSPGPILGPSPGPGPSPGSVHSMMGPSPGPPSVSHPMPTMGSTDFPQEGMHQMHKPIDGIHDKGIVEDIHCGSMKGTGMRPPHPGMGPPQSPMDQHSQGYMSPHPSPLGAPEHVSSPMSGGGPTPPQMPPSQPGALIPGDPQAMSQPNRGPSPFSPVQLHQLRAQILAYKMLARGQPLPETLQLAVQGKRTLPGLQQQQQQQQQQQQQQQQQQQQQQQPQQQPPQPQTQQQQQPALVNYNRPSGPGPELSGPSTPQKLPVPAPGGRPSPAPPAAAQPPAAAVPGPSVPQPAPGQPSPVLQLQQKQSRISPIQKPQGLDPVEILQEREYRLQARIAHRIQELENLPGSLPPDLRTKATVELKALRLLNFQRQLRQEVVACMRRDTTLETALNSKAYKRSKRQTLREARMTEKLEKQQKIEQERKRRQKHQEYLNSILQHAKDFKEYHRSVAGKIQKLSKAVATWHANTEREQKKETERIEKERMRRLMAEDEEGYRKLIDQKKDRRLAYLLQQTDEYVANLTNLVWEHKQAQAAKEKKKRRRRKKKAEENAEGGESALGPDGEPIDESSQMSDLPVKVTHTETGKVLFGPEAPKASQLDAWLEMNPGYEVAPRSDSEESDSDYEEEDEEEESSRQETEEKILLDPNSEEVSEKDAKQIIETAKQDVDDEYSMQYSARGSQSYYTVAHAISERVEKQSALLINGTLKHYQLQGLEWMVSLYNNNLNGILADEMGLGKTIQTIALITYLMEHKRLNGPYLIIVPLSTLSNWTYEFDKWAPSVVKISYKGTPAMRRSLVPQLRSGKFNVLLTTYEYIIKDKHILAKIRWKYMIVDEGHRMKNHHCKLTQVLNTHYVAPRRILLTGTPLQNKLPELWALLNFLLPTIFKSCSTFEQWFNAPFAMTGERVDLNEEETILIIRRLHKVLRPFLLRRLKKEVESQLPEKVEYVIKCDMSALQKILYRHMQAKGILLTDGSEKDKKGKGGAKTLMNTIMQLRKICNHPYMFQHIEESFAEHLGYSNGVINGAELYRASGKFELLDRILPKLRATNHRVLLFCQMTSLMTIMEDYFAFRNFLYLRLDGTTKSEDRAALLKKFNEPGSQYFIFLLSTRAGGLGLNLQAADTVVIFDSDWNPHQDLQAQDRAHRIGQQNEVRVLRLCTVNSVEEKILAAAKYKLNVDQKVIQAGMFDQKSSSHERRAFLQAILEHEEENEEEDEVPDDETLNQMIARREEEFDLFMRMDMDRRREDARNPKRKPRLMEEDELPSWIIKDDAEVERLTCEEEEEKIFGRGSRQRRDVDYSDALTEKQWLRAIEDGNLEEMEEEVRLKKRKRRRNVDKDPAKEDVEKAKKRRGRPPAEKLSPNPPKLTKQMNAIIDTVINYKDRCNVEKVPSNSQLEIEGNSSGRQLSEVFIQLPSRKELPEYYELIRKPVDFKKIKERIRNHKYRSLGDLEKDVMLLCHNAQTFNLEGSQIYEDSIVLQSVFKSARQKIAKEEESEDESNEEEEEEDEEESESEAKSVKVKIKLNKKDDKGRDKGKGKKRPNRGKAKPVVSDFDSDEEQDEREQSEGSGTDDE
# Test protocol: SMARCA2 degradation assay (HiBiT-fusion HeLa cell line, 24 h, luminescence)
# Format: cell-based
# Test parameters: @ 1 μM
Measurement label: SMARCA2 % Degradation @ 1 μM

Some solved cases for reference:
[[record]]
compound = "NCC#Cc1nccc(N2CCCC3(CCN(c4cc(-c5ccccc5O)nnc4N)CC3)C2)n1"
measurement_label = "SMARCA2 % Degradation @ 1 μM"
value = "+ (+=<30%)"

[[record]]
compound = "CCN(CC)CC#Cc1nccc(N2CCN(c3cc(-c4ccccc4O)nnc3N)CC[C@H]2C)n1"
measurement_label = "SMARCA2 % Degradation @ 1 μM"
value = "+++ (+++=>70%)"

[[record]]
compound = "Cn1ccc(OCC#Cc2nccc(N3CCCN(c4cc(-c5ccccc5O)nnc4N)CC3)n2)n1"
measurement_label = "SMARCA2 % Degradation @ 1 μM"
value = "+++ (+++=>70%)"

[[record]]
compound = "CC(C)(C)OC(=O)NCC#Cc1nccc(N2CCCN(c3cc(-c4ccccc4O)nnc3N)CCC2)n1"
measurement_label = "SMARCA2 % Degradation @ 1 μM"
value = "+++ (+++=>70%)"

[[record]]
compound = "Nc1nnc(-c2ccccc2O)cc1N1CC2CCC(C1)N2c1ccnc(C#CCn2cncn2)n1"
measurement_label = "SMARCA2 % Degradation @ 1 μM"
value = "++ (++=30-70%)"


Record NCC#Cc1nccc(N2CCC3C2CCCN3c2cc(-c3ccccc3O)nnc2N)n1 (stereo not drawn) . Reported SMARCA2 % Degradation @ 1 μM: + (+=<30%)
